Measured values drawn from the METLIN SMRT retention time set (Domingo-Almenara et al. 2019) for this set.

assay.text: gradient 5% acetonitrile 3 min, to 50% in 2 min, to 85% in 15 min, held 3 min, 100 µL/min
protocol.conditions: column: Zorbax Extend-C18 2.1 x 50 mm; eluents: water / acetonitrile, 0.1% formic acid
property.label: RP-LC retention time (s)

{"columns": ["molecule", "RP-LC retention time (s)"],
 "data": [
  ["COC(=O)c1cc(C2CC2)nc2c1c(=O)n(Cc1ccccc1)c(=O)n2C", 1030],
  ["CC(C)NC(=O)N1CCN(c2nc3ccccc3n(Cc3ccccc3)c2=O)CC1", 912],
  ["Cc1ccccc1CNC(=O)C1(C)CCCN(C(=O)Nc2ccc(Cl)cc2)C1 (centres undefined)", 995],
  ["CC(C)c1noc(-c2cccnc2N2CCCN(Cc3ccc(F)cc3Cl)CC2)n1", 754],
  ["Cn1cc(-c2nc(C(=O)Nc3ccc(C#N)cc3)cs2)c2cccnc21", 958],
  ["O=C(C1=NN(CCc2ccccc2)c2ccccc2S1(=O)=O)N1CCCCCC1", 1020],
  ["CCCS(=O)(=O)c1nc2ccc(NS(=O)(=O)Cc3cc(F)cc(F)c3)cc2s1", 938],
  ["COc1ccc(N2CCN(c3cc(SCC(=O)Nc4ccc(F)c(Cl)c4)ncn3)CC2)cc1", 1060],
  ["CCN(C(=O)Cn1nc2cc(-c3ccccc3)nc(C)n2c1=O)c1ccccc1", 985]
]}

---

assay.text: gradient 5% acetonitrile 3 min, to 50% in 2 min, to 85% in 15 min, held 3 min, 100 µL/min
protocol.conditions: column: Zorbax Extend-C18 2.1 x 50 mm; eluents: water / acetonitrile, 0.1% formic acid
property.label: RP-LC retention time (s)

Recorded RP-LC retention time, per entry:
{"columns": ["compound", "value.observed"],
 "data": [
  ["O=C(Nc1cnc(-c2ccccc2)nc1)C1CCCC1", 936],
  ["CCN(CC)S(=O)(=O)c1cccc(-c2nnc(-c3ccc(OC)cc3)o2)c1", 1020],
  ["COc1cccc(C2Cn3nnc(-c4nc(-c5ccccc5F)no4)c3CO2)c1 (stereo not given)", 1100]
]}

1 = O=C(Cn1nc2c(cc1=O)CCCCC2)NCCc1nc(-c2ccccc2)cs1
2 = CN(C)C[C@@H]1CN(C2CCOCC2)C[C@H]1NS(=O)(=O)Cc1cccc(F)c1
Query: Lab log: flag the item ( 1 or 2 ) with the smaller RP-LC retention time figure. Lab note: record the label of whichever item you select.
Reply: 2

---

assay.text: gradient 5% acetonitrile 3 min, to 50% in 2 min, to 85% in 15 min, held 3 min, 100 µL/min
protocol.conditions: column: Zorbax Extend-C18 2.1 x 50 mm; eluents: water / acetonitrile, 0.1% formic acid
property.label: RP-LC retention time (s)

Recorded RP-LC retention time, per entry:
{"columns": ["molecule", "value.observed"],
 "data": [
  ["CCn1ccc(NC(=O)Nc2cccc(C)c2)n1", 738],
  ["Cc1[nH]c2ccccc2c1C(=O)C(=O)NCCn1ccc2ccccc21", 844],
  ["O=S(=O)(c1ccc(F)cc1)N1CCc2nc(-c3ccc(Cl)cc3)ncc2C1", 1170]
]}

I = CCC(C)NC(=O)CCc1ccc2nc(-c3ccccc3)[nH]c2c1 (stereo not given)
II = CCc1noc(C2CCCCN2Cc2cc(F)ccc2F)n1 (stereo not given)
Query: Which numeric RP-LC retention time is bigger, that of I or that of II ? Lab note: record the label of whichever item you select.
Reply: II
(II: 939 s, I: 621 s)

---

assay.text: gradient 5% acetonitrile 3 min, to 50% in 2 min, to 85% in 15 min, held 3 min, 100 µL/min
protocol.conditions: column: Zorbax Extend-C18 2.1 x 50 mm; eluents: water / acetonitrile, 0.1% formic acid
property.label: RP-LC retention time (s)

Recorded RP-LC retention time, per entry:
{"columns": ["molecule", "unit.abbreviation", "RP-LC retention time"],
 "data": [
  ["N=C(N)c1ccc2cc(OC(=O)c3ccc(N=C(N)N)cc3)ccc2c1", "s", 595],
  ["CCOC(=O)c1c(S(=O)(=O)N2CCC(C(=O)NC3CCCCC3)CC2)c(C)n(C)c1C", "s", 828],
  ["Cc1ccc(CNC(=O)C2(C)Cn3nc(C(=O)NCc4ccccc4C)cc3C(=O)N2C)cc1 (centres undefined)", "s", 823],
  ["Cn1c(SCC(=O)N2CCCC2)nnc1-c1ccc2c(c1)OCCCO2", "s", 661],
  ["CCOC(=O)C1CCN(c2cc3c(cc2NC(=O)CC)n(C)c(=O)c(=O)n3C)CC1", "s", 724],
  ["O=C(Cn1cnc2nc(N3CCCC(C(=O)NC4CC4)C3)sc2c1=O)Nc1ccc2c(c1)OCO2 (centres undefined)", "s", 659],
  ["COc1cc(NC(=O)CN2CCN(c3ccccn3)CC2)cc(OC)c1", "s", 587],
  ["COc1ccc(-c2nnc(-c3cccc(S(=O)(=O)N4CCCCCC4)c3)o2)cc1", "s", 1130],
  ["C#CC(c1ccccc1)(c1ccccc1)n1ccnc1", "s", 739],
  ["Cc1nc2c(sc3nc(-c4ccccc4)ccc32)c(=O)n1CC(=O)Nc1cccc(Cl)c1", "s", 1120]
]}

1 = COc1ccccc1NC(=O)c1cccc(N2CCNC(c3ccccc3)C2)n1 (centres undefined)
2 = O=C(Nc1ccccc1-c1nc2ccccc2[nH]1)c1cc2ccccc2o1
Query: Which numeric RP-LC retention time is bigger, that of 1 or that of 2 ? Lab note: record the label of whichever item you select.
Reply: 2
(2: 1080 s, 1: 693 s)

P = Cc1ccc(-n2nc3c(N4CCN(C(=O)NCC5CCCO5)CC4)nnc(C)c3c2C)cc1 (centres undefined)
Q = CCOc1nc2ccccc2nc1N1CCCC(C(=O)Nc2ccc(Br)cc2)C1 (centres undefined)
R = COc1cc(CN2CC(F)(F)C[C@H]2c2nnc(C3CC3)o2)ccc1F
Query: Sort by RP-LC retention time, descending. Write out the labels following the order that was asked for.
Reply: Q, R, P

---

assay.text: gradient 5% acetonitrile 3 min, to 50% in 2 min, to 85% in 15 min, held 3 min, 100 µL/min
protocol.conditions: column: Zorbax Extend-C18 2.1 x 50 mm; eluents: water / acetonitrile, 0.1% formic acid
property.label: RP-LC retention time (s)

Recorded RP-LC retention time, per entry:
{"columns": ["compound", "RP-LC retention time / s"],
 "data": [
  ["Cc1cccc(C)c1NC(=O)N(C)CC1CCOC1 (stereo not given)", 666],
  ["Cn1cc(-c2ccncc2)cc1C(=O)NCc1ccc(F)cc1", 640],
  ["CCOc1cccc(CN2C[C@@H]3C(=O)N(CCCN4CCCC4=O)C(=O)[C@@H]3C2)c1", 617],
  ["O=C(Cc1ccccc1)N1CCN(c2cc(-c3cccs3)[nH]n2)CC1", 765],
  ["COc1ccc(C2(C(=O)N3C[C@@H](CO)[C@H](c4ccccn4)C3)CC2)cc1", 605]
]}

I = CCOc1cc(=O)n2c(c1C(=O)OCc1ccccc1F)CCCCC2
II = O=C1C=C(Nc2cccnc2)c2ccccc2C1=O
Query: Lab log: flag the item ( I or II ) with the smaller RP-LC retention time figure. Lab note: record the label of whichever item you select.
Reply: II
(II: 594 s, I: 914 s)

P = CCOC(=O)c1ccc(NC(=O)Cn2c(=O)n(-c3ccc(F)cc3)c(=O)c3c2cc(C)n3C)cc1
Q = COCC1(F)CCN(Cc2c(-c3ccc(C)cc3)nc3c(C)cccn23)CC1
Query: Which numeric RP-LC retention time is bigger, that of P or that of Q ? Lab note: record the label of whichever item you select.
Reply: P

I = O=C(CCS(=O)(=O)c1ccccc1)NCc1cc(-c2ccccc2F)on1
II = CC(C)c1nc(-n2cccc2)sc1C(=O)NCCc1ccccc1
Query: Lab log: flag the item ( I or II ) with the smaller RP-LC retention time figure. Lab note: record the label of whichever item you select.
Reply: I
(I: 742 s, II: 1190 s)

---

assay.text: gradient 5% acetonitrile 3 min, to 50% in 2 min, to 85% in 15 min, held 3 min, 100 µL/min
protocol.conditions: column: Zorbax Extend-C18 2.1 x 50 mm; eluents: water / acetonitrile, 0.1% formic acid
property.label: RP-LC retention time (s)

a = CCn1cc(CCNC(=O)C2CCCC2)c2cccnc21
b = CCCn1c(=O)sc2cc(S(=O)(=O)N3CCC(C(=O)Nc4ccc(C)cc4)CC3)ccc21
Query: Lab log: flag the item ( a or b ) with the smaller RP-LC retention time figure. Lab note: record the label of whichever item you select.
Reply: a
(a: 654 s, b: 1010 s)

P = O=S(=O)(Nc1cc(-c2ccoc2)no1)c1ccc2c(c1)CCC2
Q = O=C(Nc1cccn2cnnc12)c1cnccn1
Query: Lab log: flag the item ( P or Q ) with the smaller RP-LC retention time figure. Lab note: record the label of whichever item you select.
Reply: Q
(Q: 590 s, P: 921 s)
